Values from the supplement of paper PMC11865577

Test system: TO-3-N3-2 (biotin conjugate)
Experiment: pull-down binding Z-score (relative to library population); higher = stronger binding
Conditions: RNA library: Library-2
measured parameter: pull-down binding Z-score

GGUUGGGAGAAGAGCAACAGCC [IAV_invivo_PB2_1_Motif_16+IAV_invivo_PB2_1_Motif_16] ... 0.479
GAAGCUGUGAAGCCACAGAUGGGCUUU [hsa-mir-30a] ... 0.0568
GAAGCUGUAAGACACAGCUAAGCUUU [hsa-mir-30d] ... -0.00751
GUCCUGACUGCGUGCCAGGGGC [hsa-mir-3650] ... -0.518
CAUCAUUUGCACUACUGAUACUUGGGGUCAGAUAAUUGUUUGUGGUG [hsa-mir-4447] ... -0.334
UACCGAUGCCAUAGAGGUG [IAV_invivo_PB1_2_Motif_30+IAV_invivo_PB1_2_Motif_30] ... -0.0397
GGUCUGAGCCCAUGUGUGGACCUAGGUCUGCUGUUAAACUGACU [hsa-mir-6831] ... 0.106
CUGGGCCAUAAGGACCAG [IAV_invivo_NP_5_Motif_20+IAV_invivo_NP_5_Motif_20] ... -0.477
AGUGGCCAAUUCCU [hsa-mir-4251] ... -0.313
UUGGUGUGUAUUGCCUUGUCAA [hsa-mir-1179] ... -0.217
GAGAAACUUGAGGUCUCUGGGAGUUGCUUAAACCAGUUGACCGUAACCUGGCCAGAGAAUUCUGAUAGUGUC [hsa-mir-6740] ... -0.00402
ACGUACUGCCACUAAAGCAUACAAUGUAACACAAGCUUUCGGCAGACGU ... 0.565
GUCACUGUCUCAAAUCAGUGAC [hsa-mir-549a] ... -0.427
AAGGAGCUGGUGGCCAUAGUUACGGCGCCGAUCUAAAGUCAUUUGACUUAGGCGACGAGCUUGGCACUGAUCCUU [DMSMaPseq_invitro_SARS-CoV-2_Motif_14] ... 0.134
CACUCAAAGGCGGUGCACCAACAAAGGUUACUUUUGGUGAUGACACUGUGAUAGAAGUG [DMSMaPseq_invitro_SARS-CoV-2_Motif_50] ... -0.205
UGUUCACGUGGAGAGGAGUUAAACA [hsa-mir-499b] ... 0.375
CACAUCUAGGUUUCGUCCGGGUGUG [SARS-CoV-2-Conserved-Structured-16_Interval-158-277_Motif_2] ... -0.459
CUCUUGAGUGCAUUAAAGACCUUCUAGCACGUGCUGGUAAAGCUUCAUGCACUUUGUCCGAACAACUGGACUUUAUUGACACUAAGAG [SHAPE_invitro_SARS-CoV-2_Multi_69_ComplexLevel_1] ... -0.197
GGAAGACACAUGAGCAGUGCCUCCACUUCACGCCUCUCCC [hsa-mir-6780b] ... 0.0363
GUGAGUGUCUCUUGUCGC [hsa-mir-1281] ... -0.252
CAUUUCAGCGUAUAUAUGUAUAUGUGGCUGUG [hsa-mir-19b-2] ... 0.559
CCAAUGGUAUCCAGUGAUUCGUUGA [hsa-mir-4709] ... -0.442
GGGACUGAGAAUUAGCUCAUCCU [IAV_invivo_PB2_1_Motif_14+IAV_invivo_PB2_1_Motif_14] ... -0.318
UAUUGUGUUGAUCAACAAUA [hsa-mir-5590] ... -0.465
GAUCCGGGAACCCACAGCCCCGUUC [hsa-mir-6783] ... 0.149
CGAGUCUCUGAAACUCUACAGAGAUUCG [IAV_invivo_NS1_NEP_8_Motif_12+IAV_invivo_NS1_NEP_8_Motif_12] ... -0.606
AUUCUGAAGUUGUUCUUAAAAAGUUGAAGAAGUCUUUGAAU [DMSMaPseq_invitro_SARS-CoV-2_Motif_213] ... -0.324
UGGUGUUAGAAGGUCCUUUUAUGUCUAUGCUAAUGGAGGUAAAGGCUUUUGCAAACUA [SHAPE_invitro_SARS-CoV-2_Motif_149] ... -0.276
GCUUCCGCUCUGCAGAGGC [hsa-mir-6822] ... -0.487
CCUGUAUGUCUCCCCGCAGCACCGUCAUCGU [hsa-mir-6774] ... 0.182
GAUGAAGAUUAAUCCCUAAUCCCCAACA [hsa-mir-6757] ... -0.0684
GCAGGCCGUGAACUCGUCGAGCUGCGCGUGCGGCCGGUGCUCA [hsa-mir-1199] ... 0.103
CUGAAAAAUGGGAAUCUGGAGUAAAAGACUGUGUUGUAUUACACAGUUACUUCACUUCAGACUAUUACCAG ... -0.182
UCCCAGGCCCUUCCUCCAAUACUGGGA [hsa-mir-4666b] ... -0.0987
GACAUGCUCUGACUCCCCUGAUGUC [hsa-mir-6852] ... 0.244
AAGUCCGGCUCCAGAACCUGGACACCGCUCAG [hsa-mir-4638] ... 0.379
